Reference source: PubChem BioAssay (NCATS)

Kindly supply the reported Potency values for the records listed here.
# PROCEDURE TEXT: Quantitative High-Throughput drug screen in 47 multiple myeloma cell lines against the NCATS MIPE library collection: VP6_DJ cell viability assay (AID 1919867); also: potency is read from the fitted curve at half-maximal effect; nearly all actives have a fitted effect of over 40% in size
# RECORDED CONDITIONS: ATP luminescence, 48 h; series mostly up to 45.8 µM
Results filed as inconclusive are left out. Active and inactive are the calls of the source. Calls follow the shape of the dose curve; as a rule, active = well fitted cell-killing curve with a large enough effect; inconclusive = small, poorly fitted or top-dose-only effect, or effect the other way; inactive = no such curve, though single readings can be large or run the other way.

INSERT INTO results (query_smiles, observed_result) VALUES
  ('O=C(NOC[C@H](O)CO)c1ccc(F)c(F)c1Nc1ccc(I)cc1F', '37.2 nM (active)'),
  ('Cn1cnc2c(F)c(Nc3ccc(Br)cc3Cl)c(C(=O)NOCCO)cc21', '296 nM (active)');

Continue with the compound presented below.
Which measured Potency value corresponds to "CCOc1cc(N2CCC(O)CC2)ccc1Nc1ncc2c(n1)N(C)c1ccccc1C(=O)N2C" ?
2090 nM (active)

* * *

# Tested on: MKL-1
# PROCEDURE TEXT: qHTS assay to identify novel small-molecules to repurpose for Merkel cell carcinoma treatment (AID 1296009); also: nearly all actives have a fitted effect of over 60% in size
# RECORDED CONDITIONS: MCC and control cell lines, CellTiter-Glo viability, 72 h; series mostly up to 46 µM
Records with an inconclusive call do not appear. Calls of active or inactive are those of the source. Calls follow the shape of the dose curve; as a rule, active = well fitted inhibition curve with a large enough effect; inconclusive = small, poorly fitted or top-dose-only effect; inactive = flat fitted curve, though single readings scatter.
Outcome (select one): true for active, false for inactive

Some solved cases for reference:
INSERT INTO assay_data (compound, study_system, assigned_label) VALUES
  ('O=C(C1CC1)N1CC[C@@H](Cn2c(-c3ccc(-c4ccc5occc5c4)cc3)nc3cnccc32)C1', 'MKL-1', 'false'),
  ('CC[C@@H](C)[C@H](NC(=O)[C@H](CC1CCCCC1)NC(=O)c1ccno1)C(=O)N1CCC2(CCc3ccccc32)CC1', 'MKL-1', 'false'),
  ('c1ccc([C@H]2CN3CCSC3=N2)cc1', 'MKL-1', 'false'),
  ('CCOC(=O)N1CCC(=C2c3ccc(Cl)cc3CCc3cccnc32)CC1', 'MKL-1', 'false'),
  ('O=C(C=Cc1ccc(/C=C/C(=O)Nc2ccc(C3=NCCN3)cc2)cc1)Nc1ccc(C2=NCCN2)cc1', 'MKL-1', 'false');

Hi team, can someone confirm the assay call for "Cn1cc(-c2ccc3nnc(C(F)(F)c4ccc5ncccc5c4)n3n2)cn1" ?
false

Hi team, can someone confirm the assay call for "CC1(C)Cc2c(-c3ccccc3)c(-c3ccc(Cl)cc3)c(CC(=O)O)n2C1" ?
false

Hi team, can someone confirm the assay call for "Cc1cnc(NC(=O)C2=C(O)c3ccccc3S(=O)(=O)N2C)s1" ?
false

Hi team, can someone confirm the assay call for "Nc1nccc(-c2ccc3noc(-c4ccc(Cl)cc4)c3c2)n1" ?
false

* * *

# PROCEDURE TEXT: qHTS of pediatric cancer cell lines to identify multiple opportunities for drug repurposing: Primary screen for SK-N-MC cells (AID 1347093)
# RECORDED CONDITIONS: SK-N-MC viability, CellTiter-Glo luminescence, 48 h; series mostly up to 46 µM
Inconclusive results are not listed. Calls of active or inactive are those of the source. Calls follow the shape of the dose curve; as a rule, active = well fitted cell-killing curve with a large enough effect; inconclusive = small, poorly fitted or top-dose-only effect; inactive = no such curve, though single readings can be large or run the other way.
Outcome (select one): y = active, n = inactive

INSERT INTO measurements (molecule, assigned_label) VALUES
  ('Cc1cc(Nc2nc(N[C@@H](C)c3ncc(F)cn3)ncc2Cl)n[nH]1', 'y'),
  ('CC(C[N+](C)(C)C)OC(N)=O (stereo not given)', 'n'),
  ('Nc1nccc(-c2ccc3noc(-c4ccc(Cl)cc4)c3c2)n1', 'y'),
  ('Cc1csc(NC(=O)c2sc3nc4c(c(C(F)(F)F)c3c2N)CCC4)n1', 'n'),
  ('O=C(NOC[C@H](O)CO)c1ccc(F)c(F)c1Nc1ccc(I)cc1F', 'y'),
  ('Cc1ccccc1C(OCCN(C)C)c1ccccc1 (stereo not given)', 'n'),
  ('CCOC(=O)C1=C[C@]2(CC)CCCN3CCc4c(n1c1ccccc41)[C@@H]32', 'y'),
  ('Nc1ccc(S(=O)(=O)Nc2ccnn2-c2ccccc2)cc1', 'n');

Okay, now this molecule:
Hi team, can someone confirm the assay call for "NC(=O)c1ccc(I)c([N+](=O)[O-])c1" ?
y
